Where do the numbers come from? From the supplement of paper PMC10567573.

B1: EPB41L3 (parent)
chain: KKFLTLGSKFRYSGRTQAQTRRAS

# Variants of: B1
# MEASUREMENT PROTOCOL: protein stability index of a GFP-peptide fusion (GPS, HEK-293T) (PSI 1-6); higher = more stable;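 further: lentivirally expressed fusions sorted by FACS into six bins by GFP to DsRed ratio, PSI derived from sequencing read proportions per bin multiplied by bin number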
# SETTINGS: c terminus: a fixed tail appended
ASSAY READOUT: protein stability index

> print(dat)
     var  experimental.value
 1  Q19H                2.52
 2  F10K                4.16
 3  T20P                2.81
 4   K1R                 3.7
 5  Q17I                2.57
 6   F3L                3.22
 7   K9I                 2.6
 8   K9E                1.34
 9  R11V                3.17
10  T16H                2.93
11  S24R                3.68
12  G14S                3.34
13   F3C                3.76
14  A18L                2.44
15  A23S                2.96
16  Q19A                2.68
17  R15Q                 3.3
18  S24G                2.65
19  T20A                2.64
20   T5K                3.39
21  Q17G                2.63
22  R15L                2.64
